target: HLA-A*02:01; assay: IEDB peptide-MHC binding, purified MHC/competitive/radioactivity; filed as Kd, often an IC50 or EC50 that approximates it; bounds were set here for any values at or beyond the usual limits of such assays; settings: source organism: human papillomavirus 18
Can you tell me pKd for the items I'm about to list?
Reminder that pKd means the negative base-10 logarithm of the concentration expressed in mol/L.

Item `LFLNTLSFV` has what recorded pKd?
6.09

# input sequence: `KLPDLCTEL` ; wanted: its pKd
6.22

For `FLNTLSFVC` , what is its reported pKd?
6.03

Request the reported pKd associated with `ELTEVFEFA`
6.30

Returns the measured pKd for the input sequence. Input: `FKDLFVVYR`
6.30

So what does the record say about pKd for `FQQLFLNTL` ?
6.38

What pKd value was documented for this sequence, `SLQDIEITC` ?
6.27

Need pKd of `DIEITCVYC` , thanks.
6.19

Fill in the blank: the reported pKd of `KCIDFYSRI` is ____.
6.38

// lookup pKd for `FAFKDLFVV`
8.52

Give the measured pKd of `GLYNLLIRC` .
6.87
